measurement description: Water solubility of cloquintocet salts at 20° C.
Consider the following compounds and their measured Density readings.
Give the quantity in g/mL, number only.

// known answers, use as guide
CNC; 1.2
CC(C)N; 1.1
CC(O)CN (stereo not shown); 1.1

// switching to the query compound
QUERY: For the compound CC(C)NC(C)C , what Density is on record?
RESULT: 1.1

###

System: wild oats (Avena fatua L., AVEFA)
measurement description: Greenhouse evaluation, control of wild oats
Format: in vivo
condition details: pyroxsulam 4.7 g ai/ha, pyroxsulam:cloquintocet (AE) 1:2.1, postemergence spray
observed property: AVEFA Control 21 DAA (% Control)
Give the quantity in % Control, number only.

QUERY: Under wild oats (Avena fatua L., AVEFA): AVEFA Control 21 DAA (% Control) value of OCCNCCO [Diethanolamine] ?
RESULT: 94

QUERY: Under wild oats (Avena fatua L., AVEFA): AVEFA Control 21 DAA (% Control) value of CNC [Dimethylamine] ?
RESULT: 90

QUERY: Under wild oats (Avena fatua L., AVEFA): AVEFA Control 21 DAA (% Control) value of CCNCC [Diethylamine] ?
RESULT: 99

The origin of these recorded values is patent US20170202219A1.
